FYI, the data here is from ChEMBL document CHEMBL1201862.

Biological target: fMet-Leu-Phe receptor (Homo sapiens, UniProt P21462)
Sequence (P21462 whole entry): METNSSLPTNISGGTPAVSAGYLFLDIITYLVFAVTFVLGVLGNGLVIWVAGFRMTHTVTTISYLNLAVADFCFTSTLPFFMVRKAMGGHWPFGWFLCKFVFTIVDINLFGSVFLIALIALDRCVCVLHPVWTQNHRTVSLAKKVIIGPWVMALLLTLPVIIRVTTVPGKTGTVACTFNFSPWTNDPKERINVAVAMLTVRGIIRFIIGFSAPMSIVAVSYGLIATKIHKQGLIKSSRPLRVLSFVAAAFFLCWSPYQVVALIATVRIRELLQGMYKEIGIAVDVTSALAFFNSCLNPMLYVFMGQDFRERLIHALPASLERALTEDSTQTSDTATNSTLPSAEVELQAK
Test: FPR ligands, dose response (AID 519)
Assay type: functional
Active and inactive are the calls of the source. No stated cut-off is given here; in the data, active = Ki of 15 µM or less and inactive = more.
result type: Ki

Query O=C(C1=C(O)C(=O)N(CCCN2CCOCC2)C1c1ccccn1)c1cc2ccccc2o1 (stereo not given) on fMet-Leu-Phe receptor (Homo sapiens, UniProt P21462); Ki returned: 60.7 µM (inactive)

Reading of Ki for `N#Cc1c(C(F)(F)F)cc(-c2ccccc2)nc1SCc1nc(N)nc(N2CCOCC2)n1` with fMet-Leu-Phe receptor (Homo sapiens, UniProt P21462): > 66.7 µM (inactive)

Noted Ki for `CCc1nnc(NC(=O)CSc2nnc(-c3cc4ccccc4cc3O)n2CC)s1` , tested on fMet-Leu-Phe receptor (Homo sapiens, UniProt P21462): 61.1 µM (inactive)

Response field Ki (fMet-Leu-Phe receptor (Homo sapiens, UniProt P21462)) for item `COC(=O)[C@H](C(C)C)n1c(C)c(C(C)=O)c(C(C)=O)c1C` : > 66.7 µM (inactive)

Reading of Ki for O=C(C1=C(O)C(=O)N(CCc2ccccc2)C1c1cccnc1)c1ccco1 (stereo not given) with fMet-Leu-Phe receptor (Homo sapiens, UniProt P21462): > 66.7 µM (inactive)
